Target: Mcl-1/Bim interaction (recombinant human Mcl-1 residues 171-327) (Homo sapiens (Human))
Sequence (Q07820 171-327): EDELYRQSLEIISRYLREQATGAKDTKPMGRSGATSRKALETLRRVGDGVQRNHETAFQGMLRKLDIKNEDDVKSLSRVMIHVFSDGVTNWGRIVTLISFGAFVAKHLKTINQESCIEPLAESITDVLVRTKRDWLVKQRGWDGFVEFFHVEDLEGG
Assay: Cell Free Mcl-1:Bim Affinity Assay (Mcl-1 HTRF)
Assay type: binding
Conditions: TR-FRET, 0.1 nM Mcl-1(171-327), 0.05 nM biotin-Bim(51-76)
Attribute: IC50

Check out these entries, answers already filled in.
compound: C[C@H]([C@H]1CCC[C@H](C)[C@@H](C)S(=O)(=O)NC(=O)c2ccc3c(c2)N(C[C@@H]2CC[C@H]21)C[C@@]1(CCCc2cc(Cl)ccc21)CO3)N1CCOCC1 (single isomer, unassigned) [Example 70]
IC50: 843 pM
--
compound: C[C@H]([C@H]1CCC[C@H](C)[C@@H](C)S(=O)(=O)NC(=O)c2ccc3c(c2)N(C[C@@H]2CC[C@H]21)C[C@@]1(CCCc2cc(Cl)ccc21)CO3)N1CCOCC1 (single isomer, unassigned) [Example 79]
IC50: 1590 pM
--
compound: COCCN1CCN(C[C@H]2CCC[C@H](C)[C@@H](C)S(=O)(=O)NC(=O)c3ccc4c(c3)N(C[C@@H]3CC[C@@H]23)C[C@@]2(CCCc3cc(Cl)ccc32)CO4)CC1 (single isomer, unassigned) [Example 12]
IC50: 542 pM
--
compound: C[C@@H]1[C@@H](C)C/C=C/[C@H](CN2CCN3CCOC[C@@H]3C2)[C@@H]2CC[C@H]2CN2C[C@@]3(CCCc4cc(Cl)ccc43)COc3ccc(cc32)C(=O)NS1(=O)=O (single isomer, unassigned) [Example 37]
IC50: 288 pM

Challenge: Item C[C@@H]1CS(=O)(=O)NC(=O)c2ccc3c(c2)N(C[C@@H]2CC[C@H]2[C@@H](CO)CC[C@@H]1C)C[C@@]1(CCCc2cc(Cl)ccc21)CO3 (single isomer, unassigned) [Example 43] has what recorded IC50?
Response given: 268 pM

Challenge: # query: IC50 of entry CC(=O)N1CCN2CCN(C[C@H]3CCC[C@H](C)[C@@H](C)S(=O)(=O)NC(=O)c4ccc5c(c4)N(C[C@@H]4CC[C@@H]34)C[C@@]3(CCCc4cc(Cl)ccc43)CO5)C[C@H]2C1 (single isomer, unassigned) [Example 48]
Response given: 329 pM

Challenge: Would you kindly share the measured IC50 for C[C@@H]1[C@@H](C)CCC[C@H](C(=O)O)[C@@H]2CC[C@H]2CN2C[C@@]3(CCCc4cc(Cl)ccc43)COc3ccc(cc32)C(=O)NS1(=O)=O (single isomer, unassigned) [Example 77] ?
Response given: 442 pM

Challenge: What value of IC50 has been recorded for this entry: C[C@@H]1[C@@H](C)CCC[C@H]([C@@H](C)O)[C@@H]2CC[C@H]2CN2C[C@@]3(CCCc4cc(Cl)ccc43)COc3ccc(cc32)C(=O)NS1(=O)=O (single isomer, unassigned) [Example 40]
Response given: 822 pM

Challenge: Would you mind telling me what IC50 value was observed for C[C@@H]1[C@@H](C)CCC[C@H](CN2CC(C)(N(C)C)C2)[C@@H]2CC[C@H]2CN2C[C@@]3(CCCc4cc(Cl)ccc43)COc3ccc(cc32)C(=O)NS1(=O)=O (stereo in doubt) [Example 27] ?
Response given: 830 pM
